Attribution: the supplement of paper PMC10567573

B1: FCHSD1 (parent)
chain: LEAAEVILEHAHRGEQTTSQVSWE

Variants of: B1
Assay: protein stability index of a GFP-peptide fusion (GPS, HEK-293T) (PSI 1-6); higher = more stable;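 also: lentivirally expressed fusions sorted by FACS into six bins by GFP to DsRed ratio, PSI derived from sequencing read proportions per bin multiplied by bin number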
Conditions: c terminus: a fixed tail appended
property: protein stability index
Lab note: jot the number down without any unit.

| sequence_entry | protein stability index |
| --- | --- |
| LEAAEVILEHAHRGEQWTSQVSWE [T17W] | 3.54 |

INPUT: Can you share its protein stability index? I mean this variant: LEAAEVILEHAHRAEQTTSQVSWE [G14A]
OUTPUT: 4.55

INPUT: Query: protein stability index; subject: LEAAEVYLEHAHRGEQTTSQVSWE [I7Y]
OUTPUT: 4.7

INPUT: Which protein stability index reading was recorded for the variant LEAAEVILEHAHRGEQTTSQVSRE [W23R] ?
OUTPUT: 4.58

INPUT: Could you tell me which protein stability index is on file for LEAAEVILEHAHKGEQTTSQVSWE [R13K] ?
OUTPUT: 4.1

INPUT: Bench note: what protein stability index did LEAAEVDLEHAHRGEQTTSQVSWE [I7D] show?
OUTPUT: 5.62

INPUT: # get_value(readout='protein stability index', item= LEAAEVILEHGHRGEQTTSQVSWE [A11G] )
OUTPUT: 4.14
